TARGET ENTITY: prostaglandin E2-induced contractions of segments of guinea pig ileum (Cavia porcellus, UniProt A0A286XHJ6)
Construct: The ileums were then quickly removed from the guinea pigs; from tissue; host or cells: guinea pig ileum segments (male albino guinea pigs)
Sequence (A0A286XHJ6 1-405): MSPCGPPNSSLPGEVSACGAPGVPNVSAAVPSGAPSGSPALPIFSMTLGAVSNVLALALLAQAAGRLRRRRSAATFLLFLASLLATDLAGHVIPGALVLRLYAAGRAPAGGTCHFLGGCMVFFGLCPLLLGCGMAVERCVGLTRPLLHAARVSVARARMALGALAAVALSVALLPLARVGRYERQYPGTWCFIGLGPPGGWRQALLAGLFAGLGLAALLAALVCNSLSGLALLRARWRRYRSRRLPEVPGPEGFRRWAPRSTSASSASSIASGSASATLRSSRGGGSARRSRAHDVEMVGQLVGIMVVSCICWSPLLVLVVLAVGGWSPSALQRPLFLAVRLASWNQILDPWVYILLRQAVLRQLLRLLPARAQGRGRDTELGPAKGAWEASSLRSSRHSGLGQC
PROCEDURE DETAILS: Prostaglandin (PGE) Antagonism Assay in guinea pig ileum
CONDITIONS USED: Schild plot; guinea pig ileum, 37° C.; read-out: PGE antagonism in guinea pig ileum (pA2) (converted)
MEASUREMENT LABEL: Kb (µM)

// known answers, use as guide
{"columns": ["COMPOUND", "Kb (µM)"],
 "data": [
  ["O=C(CCNC(=O)Nc1ccc(C(F)(F)F)cc1)NNC(=O)N1Cc2ccccc2Oc2ccc(Cl)cc21 [Example 10]", 0.1],
  ["CCOP(=O)(CC(=O)NNC(=O)N1Cc2ccccc2Oc2ccc(Cl)cc21)OCC [Example 20]", 0.794],
  ["CC(C)(C)OC(=O)NCCC(=O)NNC(=O)N1Cc2ccccc2Oc2ccc(Cl)cc21 [Example 7]", 2.51]
]}

(P) CS(=O)(=O)NCCC(=O)NNC(=O)N1Cc2ccccc2Oc2ccc(Cl)cc21 [Example 11]
(Q) O=C(CCNS(=O)(=O)c1ccccc1)NNC(=O)N1Cc2ccccc2Oc2ccc(Cl)cc21 [Example 24]
(R) O=C(Cc1cccs1)NCCC(=O)NNC(=O)N1Cc2ccccc2Oc2ccc(Cl)cc21 [Example 5]
Exercise: Arrange these 3 compounds in increasing order of Kb. Rank them, then answer with their labels in that order.
Solution: R, P, Q
